# credit: the supplement of paper PMC10567573

B1: RPS21 (parent)
chain: AEVSWEPGRREGCDICAGKAGCPI

Variants of: B1
Assay: protein stability index of a GFP-peptide fusion (GPS, HEK-293T) (PSI 1-6); higher = more stable;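 further: lentivirally expressed fusions sorted by FACS into six bins by GFP to DsRed ratio, PSI derived from sequencing read proportions per bin multiplied by bin number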
Conditions: c terminus: a fixed tail appended
Would you mind labelling by protein stability index? At or over 3 is Satisfied, under is Not satisfied.

>>> df
              sequence_input       category
 0  AEVSWEPGRREGCDICAGKAGCDI      Satisfied
 1  AEVSWEPGRREGCDICTGKAGCPI      Satisfied
 2  AEVSWEPWRREGCDICAGKAGCPI  Not satisfied
 3  AEVWWEPGRREGCDICAGKAGCPI  Not satisfied
 4  AEVSWEPGRREGCDICAGEAGCPI      Satisfied
 5  AEVSWEPGRREGCDICAGKDGCPI      Satisfied
 6  AEHSWEPGRREGCDICAGKAGCPI      Satisfied
 7  AEVSWEPGRREGCDICAGKCGCPI      Satisfied
 8  AEVSWEPGRREGCHICAGKAGCPI  Not satisfied
 9  AEVSWEPGRREGCDICAGKAGFPI  Not satisfied
10  AEVSWEPGRNEGCDICAGKAGCPI      Satisfied
11  AEVSWEVGRREGCDICAGKAGCPI  Not satisfied
12  AEVSWEQGRREGCDICAGKAGCPI  Not satisfied
13  AEVSWEPGRREGCDICAGKAGCFI  Not satisfied
14  AEVSWEPGRREGCDICAGDAGCPI      Satisfied
15  AEISWEPGRREGCDICAGKAGCPI  Not satisfied
16  AEVSWEPGRREGCDICAGKLGCPI  Not satisfied
17  AEVSWEPGRREGCDICAGKAGCQI  Not satisfied
18  ANVSWEPGRREGCDICAGKAGCPI      Satisfied
19  AEVSWEPGRRECCDICAGKAGCPI      Satisfied
20  AEVSWEPGRREGCDICNGKAGCPI      Satisfied
21  AEVSWEPGRVEGCDICAGKAGCPI  Not satisfied
22  AEVSWEPIRREGCDICAGKAGCPI  Not satisfied
23  AEFSWEPGRREGCDICAGKAGCPI  Not satisfied
24  AEVSWEPGRREGCDCCAGKAGCPI      Satisfied
25  AEVSWEPGRRAGCDICAGKAGCPI  Not satisfied
26  AEVSWEPGRREGCDICAGKAGCPH      Satisfied
27  AEVSWEPGRREGCDICAGKTGCPI      Satisfied
28  AEVSWEPGRRETCDICAGKAGCPI      Satisfied
29  ARVSWEPGRREGCDICAGKAGCPI  Not satisfied
30  AEVSWEPTRREGCDICAGKAGCPI  Not satisfied
